Sourced from ChEMBL document CHEMBL1201862

# targetEntity: Insulin-degrading enzyme (Homo sapiens)
# Sequence (P14735 whole entry): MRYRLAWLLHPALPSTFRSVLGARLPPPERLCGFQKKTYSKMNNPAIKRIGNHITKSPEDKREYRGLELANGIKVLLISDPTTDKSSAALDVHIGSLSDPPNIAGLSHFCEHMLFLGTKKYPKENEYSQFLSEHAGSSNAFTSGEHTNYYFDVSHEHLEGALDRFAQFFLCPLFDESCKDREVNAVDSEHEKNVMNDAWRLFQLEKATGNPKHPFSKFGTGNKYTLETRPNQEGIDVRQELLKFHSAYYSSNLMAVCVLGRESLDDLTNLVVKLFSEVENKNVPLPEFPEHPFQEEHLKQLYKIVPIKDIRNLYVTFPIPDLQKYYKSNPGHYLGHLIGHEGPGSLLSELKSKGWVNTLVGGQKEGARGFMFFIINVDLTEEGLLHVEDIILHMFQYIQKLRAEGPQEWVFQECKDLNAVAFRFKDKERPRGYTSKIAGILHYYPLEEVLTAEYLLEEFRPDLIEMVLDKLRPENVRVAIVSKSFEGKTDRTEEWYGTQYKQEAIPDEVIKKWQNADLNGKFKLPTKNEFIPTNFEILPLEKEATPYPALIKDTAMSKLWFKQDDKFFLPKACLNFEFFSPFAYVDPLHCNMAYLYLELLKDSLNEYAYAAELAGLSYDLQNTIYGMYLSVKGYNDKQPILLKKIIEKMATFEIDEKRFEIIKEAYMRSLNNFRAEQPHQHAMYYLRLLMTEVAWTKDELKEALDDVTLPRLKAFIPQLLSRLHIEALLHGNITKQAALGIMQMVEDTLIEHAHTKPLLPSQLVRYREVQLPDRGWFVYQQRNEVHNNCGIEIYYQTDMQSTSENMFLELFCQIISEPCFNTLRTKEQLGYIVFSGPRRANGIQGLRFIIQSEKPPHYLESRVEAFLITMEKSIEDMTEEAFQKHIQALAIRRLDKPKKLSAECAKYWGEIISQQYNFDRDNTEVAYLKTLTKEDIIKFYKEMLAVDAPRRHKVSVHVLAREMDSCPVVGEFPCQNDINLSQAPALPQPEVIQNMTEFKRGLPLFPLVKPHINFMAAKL
# assay: activators of recombinant IDE enzyme, dose response, counter-screen for IDE activator project, biochemical, fluorescence polarization (AID 588681)
The source made the active and inactive calls.
Outcomes: 1 (yes) (active), 0 (no) (inactive)

>  <smilesRecord>
CCOC(=O)/C=C/CN(C(=O)OC(C)(C)C)S(=O)(=O)N1CC=CC1

>  <classLabel>
0 (no)

$$$$
>  <smilesRecord>
COC(=O)C1=C(C)N(Cc2ccccc2)C(NCc2cccc(Cl)c2)=N[C@H]1c1cccc(F)c1

>  <classLabel>
0 (no)

$$$$
>  <smilesRecord>
O=C(O)CCCC[C@@H]1SC[C@@H]2NC(=O)N[C@@H]21

>  <classLabel>
1 (yes)

$$$$
>  <smilesRecord>
CC1(C)C=Cc2c(ccc3c2OC[C@H](c2ccc(O)cc2O)C3)O1

>  <classLabel>
0 (no)

$$$$

###

# targetEntity: Heat shock factor protein 1 (Mus musculus)
# Sequence (P38532 whole entry): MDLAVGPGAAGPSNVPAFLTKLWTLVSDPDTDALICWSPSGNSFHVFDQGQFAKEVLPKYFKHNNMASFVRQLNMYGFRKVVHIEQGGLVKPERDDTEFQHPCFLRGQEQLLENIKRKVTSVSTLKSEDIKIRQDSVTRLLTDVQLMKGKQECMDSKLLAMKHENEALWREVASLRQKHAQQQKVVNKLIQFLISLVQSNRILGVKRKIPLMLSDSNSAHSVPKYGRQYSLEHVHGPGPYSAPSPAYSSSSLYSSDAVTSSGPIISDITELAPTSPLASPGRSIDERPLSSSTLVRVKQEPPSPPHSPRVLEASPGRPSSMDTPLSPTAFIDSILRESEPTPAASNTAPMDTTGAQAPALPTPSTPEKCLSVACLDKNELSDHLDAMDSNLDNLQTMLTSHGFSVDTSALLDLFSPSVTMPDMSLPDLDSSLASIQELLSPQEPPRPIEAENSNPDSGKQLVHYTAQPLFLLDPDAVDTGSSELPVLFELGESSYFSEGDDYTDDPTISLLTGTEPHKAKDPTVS
# assay: HSF1 potentiators in luciferase reporter cells, confirmation, cell-based, NIH3T3, luminescence, dose retest (AID 435004);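 note: stress induced by proteasome inhibitor MG132 added 30 min after compound; luciferase reporter driven by HSF1 response element in NIH3T3 cells; actives raise luminescence as potentiators of the MG132 stress response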
# Type: functional
The source made the active and inactive calls.
Outcomes: active, inactive

>  <compound>
CC(C)(C)NC(=O)c1ccc2c3c(cccc13)CC2

>  <classLabel>
inactive

$$$$
>  <compound>
Cc1ccc(/N=C2\SC(C(=O)NCCc3ccccc3)CC(=O)N2C)cc1C (stereo unspecified)

>  <classLabel>
inactive

$$$$
>  <compound>
Cc1ccc(CC2S/C(=N\c3ccccc3)N(c3ccccc3)C2=O)cc1 (stereo unspecified)

>  <classLabel>
inactive

$$$$
>  <compound>
Nc1ccccc1Nc1ccc([N+](=O)[O-])cc1[N+](=O)[O-]

>  <classLabel>
inactive

$$$$
>  <compound>
Cc1ccc(/C=C/C(=O)c2ccccc(=O)c2O)cc1C

>  <classLabel>
active

$$$$
>  <compound>
O=C(O)CSc1c(-c2ccccc2)[nH]c2ccccc12

>  <classLabel>
inactive

$$$$

###

# targetEntity: UniProtKB Q06710
# Sequence (Q06710 whole entry): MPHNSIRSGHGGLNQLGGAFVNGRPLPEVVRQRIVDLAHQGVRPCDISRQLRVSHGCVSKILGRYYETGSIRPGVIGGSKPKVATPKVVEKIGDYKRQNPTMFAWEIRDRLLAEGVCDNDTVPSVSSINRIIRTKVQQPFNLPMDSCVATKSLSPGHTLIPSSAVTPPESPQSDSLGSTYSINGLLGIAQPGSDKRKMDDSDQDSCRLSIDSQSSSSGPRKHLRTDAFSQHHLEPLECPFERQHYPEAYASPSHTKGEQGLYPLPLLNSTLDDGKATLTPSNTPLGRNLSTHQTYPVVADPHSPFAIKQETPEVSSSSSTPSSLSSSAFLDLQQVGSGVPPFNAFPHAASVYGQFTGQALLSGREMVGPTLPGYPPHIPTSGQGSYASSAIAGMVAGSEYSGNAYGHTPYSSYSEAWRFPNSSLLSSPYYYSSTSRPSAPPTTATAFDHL
# assay: inhibitors of PAX8-driven TPO luciferase reporter, dose response, RMG-I cells, cherry-pick (AID 687027);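 note: luciferase reporter driven by Pax8 target thyroperoxidase promoter measured by SteadyGlo luminescence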
# Format: functional, cell-based
Calls of active or inactive are those of the source.

>  <compound>
O=C(C[C@@H]1C[C@H]2c3cc(NS(=O)(=O)c4ccc(F)cc4)ccc3O[C@H]2[C@H](CO)O1)NCc1ccc(Cl)cc1

>  <AC50>
5.93 µM (active)

$$$$
>  <compound>
O=C(c1cc([N+](=O)[O-])ccc1N1CCOCC1)N1CCN(c2ccccc2)CC1

>  <AC50>
3.76 µM (active)

$$$$
>  <compound>
N#CC1c2ccccc2-n2nncc2CN1Cc1cc(Cl)cc(Cl)c1 (centres undefined)

>  <AC50>
10.2 µM (active)

$$$$
>  <compound>
Cc1ccc(S(=O)(=O)Nc2ccc3c(c2)C(=O)N([C@@H](C)CO)C[C@@H](C)[C@H](CN(C)Cc2ccc(C(F)(F)F)cc2)OCCCC[C@H](C)O3)cc1

>  <AC50>
6.38 µM (active)

$$$$

###

# targetEntity: Tumor necrosis factor (Homo sapiens)
# Sequence (P01375 whole entry): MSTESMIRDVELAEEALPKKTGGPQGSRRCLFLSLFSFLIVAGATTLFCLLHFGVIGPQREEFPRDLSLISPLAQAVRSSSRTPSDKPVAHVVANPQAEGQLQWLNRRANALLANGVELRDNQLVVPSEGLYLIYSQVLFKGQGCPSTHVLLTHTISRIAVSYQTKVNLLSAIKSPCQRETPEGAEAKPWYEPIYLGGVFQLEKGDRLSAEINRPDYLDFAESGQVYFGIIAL
# assay: TNFa-triggered NF-kB activation inhibitors, SAR follow-up, cell-based, revised (AID 2337)
# Format: functional
Calls of active or inactive are those of the source.
Outcomes: active, inactive

>  <smilesRecord>
O=C(Nc1ccc(Cl)c(Cl)c1)c1ccc(CN2CCc3ccccc3C2)cc1

>  <classLabel>
inactive

$$$$
>  <smilesRecord>
O=C(C1CC1)N1CCc2cc(S(=O)(=O)N3CCN(c4ccc([N+](=O)[O-])cc4)CC3)ccc21

>  <classLabel>
active

$$$$
>  <smilesRecord>
O=C(CSc1nc2scc(-c3ccccc3)c2c(=O)[nH]1)Nc1ccc(C(F)(F)F)cc1

>  <classLabel>
active

$$$$
>  <smilesRecord>
Cc1ccccc1C(=O)Nc1nc2ccccc2n1Cc1ccc(Cl)cc1

>  <classLabel>
inactive

$$$$
